# Study target: T1, 细胞表面CTLA-4抗原 (CTLA-4 on cells) (UniProt P16410 36-223, limits assumed)
# T1 sequence (looked up): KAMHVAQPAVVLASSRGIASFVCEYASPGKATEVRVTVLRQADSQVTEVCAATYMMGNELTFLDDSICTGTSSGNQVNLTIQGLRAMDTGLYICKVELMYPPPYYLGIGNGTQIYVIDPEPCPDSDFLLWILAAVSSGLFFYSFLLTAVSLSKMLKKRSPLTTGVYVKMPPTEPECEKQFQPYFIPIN
# Test description: cell-based or functional assay
Result type: 混合淋巴细胞反应(MLR), CD4+ T细胞增殖 (cck8), EC50 (nM)
// return numeric value only (unit: nM, not printed)

// query Would you mind telling me what 混合淋巴细胞反应(MLR), CD4+ T细胞增殖 (cck8), EC50 value was observed for 全抗N-7 (antibody, human IgG1, kappa, V domains shown, also called 抗CTLA-4全抗体N-7) VH: QVQLVESGGGVVQPGRSLRLSCAASGFTFSGIYCNWVRQAPGKGLEWVTFISYDSILNVIADSVKGRFTISRDNSKNTLYLQMNSLRAEDTAIYYCARRYRWWGKAMDYWGQGTLVTVSS VL: DIVMTQSPLSLPVTPGEPASISCRSSQTVFDSHGQTYLQWYLQKPGQSPQLLIYGASRQVSGVPDRFSGSGSGTDFTLKISRVEAEDVGVYYCMQVWHLPITFGQGTKLEIKR ?
// result 6.31

// query And what about the binder 全抗N-1 (antibody, human IgG1, kappa, V domains shown, also called 抗CTLA-4全抗体N-1) VH: QVQLVESGGGVVQPGRSLRLSCAASGFTFSGYNGNWVRQAPGKGLEWVTFISYDGLNDVKADSVKGRFTISRDNSKNTLYLQMNSLRAEDTAIYYCARRYRWWGKAMDYWGQGTLVTVSS VL: DIVMTQSPLSLPVTPGEPASISCKSSQSVIDSKGYTYLGWYLQKPGQSPQLLIYLGTQKSSGVPDRFSGSGSGTDFTLKISRVEAEDVGVYYCLQRGHIPITFGQGTKLEIKR ?
// result 7.34

// query Ok, now 全抗N-6 (antibody, human IgG1, kappa, V domains shown, also called 抗CTLA-4全抗体N-6) VH: QVQLVESGGGVVQPGRSLRLSCAASGFTFSSNTLRWVRQAPGKGLEWVTFISYDSLFLDQGDSVKGRFTISRDNSKNTLYLQMNSLRAEDTAIYYCARRYRWWGKAMDYWGQGTLVTVSS VL: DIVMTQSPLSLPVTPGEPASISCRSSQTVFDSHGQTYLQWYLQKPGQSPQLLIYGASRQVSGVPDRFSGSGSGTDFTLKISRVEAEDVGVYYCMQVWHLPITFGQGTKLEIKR
// result 6.67
